System: MHCC97H
Experiment: Cytotoxicity against human MHCC97H cells assessed as cell growth inhibition incubated for 48 hrs by MTT assay
Format: functional, cell-based
VALUE KIND: IC50 (µM)
Give a bare numeral; the unit µM is implied.

Task item: Please list IC50 recorded for the compound CCCCCCCCCCCC[C@@H](O)[C@H]1CC[C@H]([C@H](O)CCCC(O)CCCCCC[C@@H](O)CC2=C[C@H](C)OC2=O)O1 (some centres not stated)
Reply: 10

Task item: Give recorded IC50. CCCCCCCCCCCC[C@@H](O)[C@H]1CC[C@H]([C@H](O)CCCC[C@@H](O)CCCCC[C@@H](O)CC2=C[C@H](C)OC2=O)O1
Reply: 7.4

Task item: Retrieve IC50 measured for CCCCCCCCCCCC[C@H](O)[C@@H]1CC[C@H]([C@H](O)CCCCC(=O)CCCCC[C@@H](O)CC2=C[C@H](C)OC2=O)O1 and print it.
Reply: 15

Task item: In one line, give reported IC50 of the entry CCCCCCCCCCCC[C@@H](O)[C@H]1CC[C@H]([C@H](O)CCCCC(=O)CCCCC[C@@H](O)CC2=C[C@H](C)OC2=O)O1 .
Reply: 15.5

Task item: Report IC50 for CCCCCCCCCCCC[C@H](O)[C@@H]1CC[C@H]([C@H](O)CCCC[C@@H](O)CCCCC[C@@H](O)CC2=C[C@H](C)OC2=O)O1
Reply: 7.1

---

Tested on: HCCLM3
Experiment: Cytotoxicity against human HCCLM3 cells assessed as cell growth inhibition incubated for 48 hrs by MTT assay
Type: functional, cell-based
Settings: HCCLM3, 48 h
Threshold check on IC50: strictly below 10 µM is label 1; on or above 10 µM is label 0.

Task item: Problem: For the molecule CCCCCCCCCCCC[C@H](O)[C@@H]1CC[C@H]([C@H](O)CCCC[C@@H](O)CCCCC[C@@H](O)CC2=C[C@H](C)OC2=O)O1 , is IC50 under 10 µM?
Reply: label 1

Task item: Input CCCCCCCCCC[C@H](O)[C@@H](O)C[C@H](O)[C@@H]1CC[C@@H](CCCCCCCCCC[C@@H](O)CC2=C[C@H](C)OC2=O)O1 ; condition: IC50 strictly below 10 µM. Does it hold?
Reply: label 0

Task item: Determine if CCCCCCCCCCCC[C@H](O)[C@@H]1CC[C@H]([C@H](O)CCCCC(=O)CCCCC[C@@H](O)CC2=C[C@H](C)OC2=O)O1 shows IC50 strictly lower than 10 µM.
Reply: label 0

Task item: Please determine if CCCCCCCCCCCC[C@@H](O)[C@H]1CC[C@H]([C@H](O)CCCCC(=O)CCCCC[C@@H](O)CC2=C[C@H](C)OC2=O)O1 is below 10 µM in terms of IC50.
Reply: label 0

Task item: Does the reported IC50 of CCCCCCCCCCCC[C@@H](O)[C@H]1CC[C@H]([C@H](O)CCCC[C@@H](O)CCCCC[C@@H](O)CC2=C[C@H](C)OC2=O)O1 stay below 10 µM?
Reply: label 1

Task item: Consider CCCCCCCCCC[C@@H](O)[C@H](O)C[C@@H](O)[C@H]1CC[C@H](CCCCCCCCCC[C@@H](O)CC2=C[C@H](C)OC2=O)O1 . Does its IC50 lie strictly below 10 µM?
Reply: label 0

---

System: HepG2
Assay: Cytotoxicity against human HepG2 cells assessed as cell growth inhibition incubated for 48 hrs by MTT assay
Assay type: functional, cell-based
Settings: HepG2, 48 h
So I've got a bunch of compounds here, and I need their pIC50 values.
# reply with the number alone; pIC50 is -log10 of concentration in mol/L

Task item: Give the reported value of pIC50 for this record: CCCCCCCCCCCC[C@H](O)[C@@H]1CC[C@H]([C@H](O)CCCCC(=O)CCCCC[C@@H](O)CC2=C[C@H](C)OC2=O)O1
Reply: 4.82

Task item: Return reported pIC50. Input compound: CCCCCCCCCCCC[C@@H](O)[C@H]1CC[C@H]([C@H](O)CCCC[C@@H](O)CCCCC[C@@H](O)CC2=C[C@H](C)OC2=O)O1
Reply: 5.13

Task item: Quickly give me recorded pIC50 for CCCCCCCCCCCC[C@@H](O)[C@H]1CC[C@H]([C@H](O)CCCCC(=O)CCCCC[C@@H](O)CC2=C[C@H](C)OC2=O)O1
Reply: 4.81

Task item: Specify measured pIC50 for CCCCCCCCCCCC[C@H](O)[C@@H]1CC[C@H]([C@H](O)CCCC[C@@H](O)CCCCC[C@@H](O)CC2=C[C@H](C)OC2=O)O1 .
Reply: 5.15

Task item: Give the reported value of pIC50 for this record: CCCCCCCCCCCC[C@@H](O)[C@H]1CC[C@H]([C@H](O)CCCC(O)CCCCCC[C@@H](O)CC2=C[C@H](C)OC2=O)O1 (some centres not stated)
Reply: 5.00
